# subjectOfTest: T1, TNFR1 (Homo sapiens, UniProt P19438)
# T1 chain: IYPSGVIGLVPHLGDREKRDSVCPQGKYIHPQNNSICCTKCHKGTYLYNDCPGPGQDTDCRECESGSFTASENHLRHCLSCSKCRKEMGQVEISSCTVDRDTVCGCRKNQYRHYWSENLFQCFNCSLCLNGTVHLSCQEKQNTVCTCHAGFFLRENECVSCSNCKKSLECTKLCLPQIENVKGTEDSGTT
# testName: yeast display SC50
parameterMeasured: apparent Kd (screen) (nM)

D40T (designed binder) MTLQELLREEALRRAEAEAFRYALELLAEKFPEQKEYLLTLAEEIESQIRSLSGVDVEDVRKFLDKEWAWVKELLAEHPAELAEVEAARAARLAELRAEVEAKVAA	3
E29C (designed binder) MTLQELLREEALRRAEAEAFRYALELLACKFPEQKEYLLDLAEEIESQIRSLSGVDVEDVRKFLDKEWAWVKELLAEHPAELAEVEAARAARLAELRAEVEAKVAA	0.539
L24D (designed binder) MTLQELLREEALRRAEAEAFRYADELLAEKFPEQKEYLLDLAEEIESQIRSLSGVDVEDVRKFLDKEWAWVKELLAEHPAELAEVEAARAARLAELRAEVEAKVAA	1.86
S53W (designed binder) MTLQELLREEALRRAEAEAFRYALELLAEKFPEQKEYLLDLAEEIESQIRSLWGVDVEDVRKFLDKEWAWVKELLAEHPAELAEVEAARAARLAELRAEVEAKVAA	13.8
I45K (designed binder) MTLQELLREEALRRAEAEAFRYALELLAEKFPEQKEYLLDLAEEKESQIRSLSGVDVEDVRKFLDKEWAWVKELLAEHPAELAEVEAARAARLAELRAEVEAKVAA	3.99
A17V (designed binder) MTLQELLREEALRRAEVEAFRYALELLAEKFPEQKEYLLDLAEEIESQIRSLSGVDVEDVRKFLDKEWAWVKELLAEHPAELAEVEAARAARLAELRAEVEAKVAA	0.446
L41V (designed binder) MTLQELLREEALRRAEAEAFRYALELLAEKFPEQKEYLLDVAEEIESQIRSLSGVDVEDVRKFLDKEWAWVKELLAEHPAELAEVEAARAARLAELRAEVEAKVAA	0.869

P: A69Q (designed binder) MTLQELLREEALRRAEAEAFRYALELLAEKFPEQKEYLLDLAEEIESQIRSLSGVDVEDVRKFLDKEWQWVKELLAEHPAELAEVEAARAARLAELRAEVEAKVAA
Q: E86Y (designed binder) MTLQELLREEALRRAEAEAFRYALELLAEKFPEQKEYLLDLAEEIESQIRSLSGVDVEDVRKFLDKEWAWVKELLAEHPAELAEVYAARAARLAELRAEVEAKVAA
// compare: P vs Q , metric apparent Kd (screen), want the smaller When you have decided, please share the label of that item.
P
